Please provide measured pEC50 for the entries that follow.
# ASSAYED TARGET: human TLR7 (Homo sapiens)
# Construct: TLR7 in pUNO vector, blasticidin selection
# Sequence (Q9NYK1 27-1049): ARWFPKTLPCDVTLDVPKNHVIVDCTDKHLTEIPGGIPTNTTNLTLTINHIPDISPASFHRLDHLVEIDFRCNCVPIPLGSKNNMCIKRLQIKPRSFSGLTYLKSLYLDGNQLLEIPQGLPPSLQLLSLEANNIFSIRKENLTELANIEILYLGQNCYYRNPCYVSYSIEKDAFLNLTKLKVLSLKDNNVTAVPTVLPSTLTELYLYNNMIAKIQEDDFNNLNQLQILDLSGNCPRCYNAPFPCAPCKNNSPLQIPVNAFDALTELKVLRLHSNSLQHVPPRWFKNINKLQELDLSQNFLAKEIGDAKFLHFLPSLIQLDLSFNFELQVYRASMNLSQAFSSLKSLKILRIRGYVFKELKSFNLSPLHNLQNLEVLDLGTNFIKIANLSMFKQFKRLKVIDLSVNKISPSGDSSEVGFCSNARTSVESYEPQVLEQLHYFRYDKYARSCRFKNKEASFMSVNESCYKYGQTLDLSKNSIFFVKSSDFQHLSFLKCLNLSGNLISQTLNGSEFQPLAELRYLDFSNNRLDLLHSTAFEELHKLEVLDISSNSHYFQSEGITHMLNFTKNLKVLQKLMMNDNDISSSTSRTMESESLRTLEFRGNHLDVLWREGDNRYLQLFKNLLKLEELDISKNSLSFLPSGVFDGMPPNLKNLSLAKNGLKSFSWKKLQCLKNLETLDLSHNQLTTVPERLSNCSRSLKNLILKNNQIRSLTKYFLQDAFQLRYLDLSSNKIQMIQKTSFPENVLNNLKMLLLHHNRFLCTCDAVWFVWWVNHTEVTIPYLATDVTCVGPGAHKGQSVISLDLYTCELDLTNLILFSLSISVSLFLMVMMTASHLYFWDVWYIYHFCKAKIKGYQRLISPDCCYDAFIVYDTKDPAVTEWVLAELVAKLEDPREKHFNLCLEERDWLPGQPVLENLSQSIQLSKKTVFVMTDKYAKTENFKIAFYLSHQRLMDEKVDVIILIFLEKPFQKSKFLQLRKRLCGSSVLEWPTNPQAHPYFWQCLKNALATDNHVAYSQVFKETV
# ASSAY REMARKS: Human TLR7 assay (SEAP reporter in HEK293 cells)
# CONDITION DETAILS: SEAP induction in HEK293 cells expressing human TLR7, overnight incubation at 37° C., 0.1% DMSO
Note: pEC50 values are expressed as the negative base-10 logarithm of concentration in M.

Task: // pEC50 lookup, key: "CCCCc1nc2c(N)nc3ccccc3c2n1CCCN(Cc1cccc(CC(=O)OC)c1)C(=O)CN1CCCN(S(C)(=O)=O)CC1"
Output: 6.20

Task: // pEC50 lookup, key: "CCCCc1nc2c(N)nc3ccccc3c2n1CCCN(Cc1cccc(CC(=O)OC)c1)C(=O)CN(CCO)CCO"
Output: 5.80

Task: // pEC50 lookup, key: "CCCCc1nc2c(N)nc3ccccc3c2n1CCCN(Cc1cccc(CC(=O)OC)c1)C(=O)CN1CCN(C)CC1"
Output: 7.10

Task: // pEC50 lookup, key: "CCCCc1nc2c(N)nc3ccccc3c2n1CCCN(Cc1ccc(CC(=O)OC)cc1)C(=O)CN1CCN(C)CC1"
Output: 6.30

Task: // pEC50 lookup, key: "CCCCc1nc2c(N)nc3ccccc3c2n1CCCN(Cc1ccc(CC(=O)OC)cc1)C(=O)CN1CCOCC1"
Output: 6.80

Task: // pEC50 lookup, key: "CCCCc1nc2c(N)nc3ccccc3c2n1CCCN(Cc1cccc(CC(=O)OC)c1)C(=O)CN1CCCN(C)CC1"
Output: 6.60

Task: // pEC50 lookup, key: "COCCc1nc2c(N)nc3ccccc3c2n1CCCN(Cc1cccc(CC(=O)OC)c1)C(=O)CN1CCCCC1"
Output: 6.80

Task: // pEC50 lookup, key: "CCCCc1nc2c(N)nc3ccccc3c2n1CCCN(Cc1cccc(CC(=O)OC)c1)C1CCN(C)CC1"
Output: 6.50

Task: // pEC50 lookup, key: "CCCCc1nc2c(N)nc3ccccc3c2n1CCCN(Cc1cccc(CC(=O)OC)c1)C(=O)CN1CCC(C(=O)N(C)C)CC1"
Output: 6.20

Task: // pEC50 lookup, key: "CCCCc1nc2c(N)nc3ccccc3c2n1CCCN(CCCN1CCOCC1)Cc1cccc(CC(=O)OC)c1"
Output: 6.60

Task: // pEC50 lookup, key: "CCCCc1nc2c(N)nc3ccccc3c2n1CCCN(Cc1cccc(CC(=O)OC)c1)C(=O)CN1CCOCC1"
Output: 6.10

Task: // pEC50 lookup, key: "CCCCc1nc2c(N)nc3ccccc3c2n1CCCN(CCCN(C)C)Cc1cccc(CC(=O)OC)c1"
Output: 6.60

Task: // pEC50 lookup, key: "CCCCc1nc2c(N)nc3ccccc3c2n1CCCN(Cc1cccc(CC(=O)OC)c1)C(=O)CN1CCCCC1"
Output: 7.10

Task: // pEC50 lookup, key: "COCCc1nc2c(N)nc3ccccc3c2n1CCCN(Cc1ccc(CC(=O)OC)cc1)C(=O)CN1CCN(C)CC1"
Output: 6.40

Task: // pEC50 lookup, key: "CCCCc1nc2c(N)nc3ccccc3c2n1CCCN(Cc1ccc(CC(=O)OC)cc1)C(=O)CN(C)CCOC"
Output: 7.20
